# maps each entry to its EC150 (the concentration of the compound showing a relative enzyme activity of 150%)
targetDesc: SIRT6 enzyme (Homo sapiens, UniProt Q8N6T7)
Sequence (Q8N6T7 whole entry, species assumed): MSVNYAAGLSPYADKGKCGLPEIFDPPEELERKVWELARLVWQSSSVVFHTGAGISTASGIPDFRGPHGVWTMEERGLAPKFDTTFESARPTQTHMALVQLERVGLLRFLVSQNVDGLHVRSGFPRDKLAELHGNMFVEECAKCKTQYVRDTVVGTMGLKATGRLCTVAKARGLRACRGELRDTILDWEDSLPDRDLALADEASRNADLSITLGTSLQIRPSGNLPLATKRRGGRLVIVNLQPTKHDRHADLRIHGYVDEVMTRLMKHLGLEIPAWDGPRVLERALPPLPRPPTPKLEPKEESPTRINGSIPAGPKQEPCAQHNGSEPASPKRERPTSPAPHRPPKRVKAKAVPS
assayOverview: Measurement of deacetylation activity (SIRT6, AlphaLISA, H3K9(Ac) peptide)
Type: biochemical
appliedConditions: SIRT6 25 ng/mL, H3K9(Ac) biotin peptide 2 nM, NAD 10 μM, room temperature 30 minutes, duplicate
Description: The reaction was performed in duplicate using a white 384-well plate (3824, Corning or 6008350, PerkinElmer) at a final reaction liquid volume of 20.1 μL. As a control for calculating the enzyme activity, the enzyme-added (DMSO (+)) and enzyme-free (DMSO (−)) wells were set at n=8. […] The emission intensity was measured by EnVision (PerkinElmer). The relative enzyme activity (%) of the test substance was calculated by the following equation. […]
observedProperty: EC150 (the concentration of the compound showing a relative enzyme activity of 150%) (μm)

CNC(=O)Nc1nc2c(s1)C1COCC(C2)N1c1nc(-c2cccc(C(=O)C3CC3)c2)no1 (stereo not shown); 1.4
COc1ccc(-c2noc(N3CCc4nc(NC(=O)NC5CCOCC5)sc4C3)n2)cc1; 2.3
CNC(=O)Nc1nc2c(s1)C1CN(C(C)=O)CC(C2)N1c1ncc(-c2cccc(OC(F)F)n2)o1 (stereo not shown); 0.43
O=C(NCCOCCO)Nc1nc2c(s1)CN(c1nc(C3CCC(F)(F)CC3)no1)CC2; 1.9
CNC(=O)Nc1nc2c(s1)[C@H]1CN(C(=O)C(C)C)C[C@@H](C2)N1c1nc(-c2ccc(F)cc2)no1; 2.4
CC(C)(O)CNC(=O)Nc1nc2c(s1)CN(c1nc(C34CC(C(F)F)(C3)C4)no1)CC2; 1.6
Cc1cc2nc(N3[C@@H]4COC[C@H]3c3sc(NC(=O)N[C@H](C)CO)nc3C4)oc2cc1C; 0.95
